# measured.on: CDK4/Cyclin D1 (Homo sapiens, UniProt P11802)
# Sequence (P11802 whole entry): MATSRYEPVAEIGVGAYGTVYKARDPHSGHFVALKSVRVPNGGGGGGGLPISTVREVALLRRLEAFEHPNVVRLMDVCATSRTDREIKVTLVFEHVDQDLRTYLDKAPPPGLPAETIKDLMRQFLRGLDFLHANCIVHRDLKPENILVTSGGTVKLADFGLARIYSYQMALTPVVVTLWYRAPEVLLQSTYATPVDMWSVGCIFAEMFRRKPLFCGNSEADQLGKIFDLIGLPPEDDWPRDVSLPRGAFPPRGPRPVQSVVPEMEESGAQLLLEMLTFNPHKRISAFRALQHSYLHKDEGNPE
# Sequence (P24385 whole entry partner): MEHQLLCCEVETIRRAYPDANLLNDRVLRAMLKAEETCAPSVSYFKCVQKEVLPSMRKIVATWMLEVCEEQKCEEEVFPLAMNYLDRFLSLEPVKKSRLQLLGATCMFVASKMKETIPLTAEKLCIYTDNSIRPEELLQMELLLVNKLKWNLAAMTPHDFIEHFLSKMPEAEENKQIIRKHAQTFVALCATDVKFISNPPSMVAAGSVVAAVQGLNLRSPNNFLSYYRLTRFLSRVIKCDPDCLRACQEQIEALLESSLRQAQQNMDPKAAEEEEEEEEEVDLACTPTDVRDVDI
# assay.details: CDK4/Cyclin D1 kinase assay (Nanosyn, Caliper microfluidic)
# Format: biochemical
# details: 12-point dose-response, ATP at Km (200 μM), 3 hr; Table 4
assay.endpoint: IC50 (µM)

Example molecules with recorded IC50:
structure.notation | measured.on | unit.tag | IC50
CN(C)[C@H]1CC[C@H](Nc2ncc3cc4n(c3n2)C2(CCCCC2)CNC4=O)CC1 | CDK4/Cyclin D1 (Homo sapiens, UniProt P11802) | µM | 0.011
O=C1NCC2(CCCCC2)n2c1cc1cnc(N[C@H]3CC[C@H](N4CCCCC4)CC3)nc12 | CDK4/Cyclin D1 (Homo sapiens, UniProt P11802) | µM | 0.021

I: O=C(C[C@H]1CCCN1)Nc1ncc2cc3n(c2n1)C1(CCCCC1)CNC3=O
II: O=C1NCC2(CCCCC2)n2c1cc1cnc(N[C@@H]3CCCN[C@@H]3c3ccccc3)nc12
Enquiry: // which entry has the larger IC50 value, I or II ? Select an item and report its label.
Return: I
(I: 6.3 µM, II: 0.12 µM)

I: O=C1NCC2(CCCCC2)n2c1cc1cnc(N[C@H]3CCCN[C@@H]3c3ccccc3)nc12
II: C1=NCC2(CCCCC2)n2c1cc1cnc(NC3CCOCC3)nc12
Enquiry: Higher IC50: I or II ? Indicate which entry you chose by stating its label.
Return: II
(II: 0.067 µM, I: 0.036 µM)

I: NS(=O)(=O)Cc1cccc(Nc2ncc3cc4n(c3n2)C2(CCCCC2)CNC4=O)c1
II: S=C1NCC2(CCCCC2)n2c1cc1cnc(N[C@@H]3CCCNC3)nc12
Enquiry: Which record shows the lower IC50: the first, I , or the second, II ? Give the label under which the chosen entry appears.
Return: II

====

# measured.on: CDK5/p25 (Homo sapiens)
# Sequence (Q00535 whole entry): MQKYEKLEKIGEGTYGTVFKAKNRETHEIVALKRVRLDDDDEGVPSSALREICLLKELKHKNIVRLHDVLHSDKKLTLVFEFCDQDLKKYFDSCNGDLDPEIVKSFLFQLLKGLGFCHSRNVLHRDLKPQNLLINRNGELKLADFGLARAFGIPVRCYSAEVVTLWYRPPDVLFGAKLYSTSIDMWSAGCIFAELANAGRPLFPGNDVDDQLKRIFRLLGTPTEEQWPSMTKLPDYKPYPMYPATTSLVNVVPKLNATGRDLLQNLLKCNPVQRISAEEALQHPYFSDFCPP
# Sequence (Q15078 99-307 partner limits assumed): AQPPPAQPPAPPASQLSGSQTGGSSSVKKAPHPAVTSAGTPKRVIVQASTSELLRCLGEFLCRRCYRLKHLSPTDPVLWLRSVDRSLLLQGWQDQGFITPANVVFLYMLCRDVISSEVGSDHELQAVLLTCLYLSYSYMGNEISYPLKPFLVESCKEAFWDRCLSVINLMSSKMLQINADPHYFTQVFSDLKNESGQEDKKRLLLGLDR
# assay.details: CDK5/p25 kinase assay (Nanosyn, Caliper microfluidic)
# details: 12-point dose-response, ATP at Km (20 μM), 3 hr
pIC50: −log10 of the molar value.
assay.endpoint: pIC50

Consider the worked cases shown below.
structure.notation | pIC50
N[C@H]1CC[C@H](Nc2ncc3cc4n(c3n2)C2(CCCCC2)CNC4=O)CC1 | 6.85
O=C(C[C@@H]1CCCN1)Nc1ncc2cc3n(c2n1)C1(CCCCC1)CNC3=O | 4.28

I: NS(=O)(=O)c1cccc(Nc2ncc3cc4n(c3n2)C2(CCCCC2)CNC4=O)c1
II: C1=NCC2(CCCCC2)n2c1cc1cnc(NC3CCOCC3)nc12
III: C[C@H]1CC[C@@H](Nc2ncc3cc4n(c3n2)C2(CCCCC2)CN=C4)CC1
Enquiry: Number of compounds to sort: 3. Sort criterion: pIC50, ascending. Quick reminder: the answer is the labels in the order asked.
Return: III, II, I
(III: 5.82, II: 7.51, I: 8.26)

====

# measured.on: CDK1/Cyclin B1 (Homo sapiens, UniProt P06493)
# Sequence (P06493 whole entry): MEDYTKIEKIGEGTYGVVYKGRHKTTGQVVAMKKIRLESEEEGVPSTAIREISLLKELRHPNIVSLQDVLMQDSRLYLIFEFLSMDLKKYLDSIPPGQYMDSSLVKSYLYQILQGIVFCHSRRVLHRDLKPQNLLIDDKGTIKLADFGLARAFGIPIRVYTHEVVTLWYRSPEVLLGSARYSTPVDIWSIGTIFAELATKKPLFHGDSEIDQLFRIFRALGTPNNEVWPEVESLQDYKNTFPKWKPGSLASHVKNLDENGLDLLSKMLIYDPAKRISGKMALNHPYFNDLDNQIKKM
# Sequence (P14635 whole entry partner): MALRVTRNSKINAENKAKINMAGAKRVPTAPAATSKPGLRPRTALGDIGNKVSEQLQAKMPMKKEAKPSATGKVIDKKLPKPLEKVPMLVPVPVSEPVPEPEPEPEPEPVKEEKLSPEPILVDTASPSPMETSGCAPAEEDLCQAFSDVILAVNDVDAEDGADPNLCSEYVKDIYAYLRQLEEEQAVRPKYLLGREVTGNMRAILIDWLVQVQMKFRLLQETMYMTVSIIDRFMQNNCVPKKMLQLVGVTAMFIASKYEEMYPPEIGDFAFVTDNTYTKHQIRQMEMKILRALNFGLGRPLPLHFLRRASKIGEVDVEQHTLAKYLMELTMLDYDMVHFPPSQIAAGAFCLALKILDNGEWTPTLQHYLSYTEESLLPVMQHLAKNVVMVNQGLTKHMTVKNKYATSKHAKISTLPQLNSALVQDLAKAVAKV
# assay.details: CDK1/Cyclin B1 kinase assay (Nanosyn, Caliper microfluidic)
# details: 12-point dose-response, ATP at Km (40 μM), 3 hr
assay.endpoint: IC50 (nM)

1: C1=NCC2(CCCCC2)n2c1cc1cnc(N[C@@H]3CCCNC3)nc12
2: O=C1NCC2(CCCCC2)n2c1cc1cnc(N[C@H]3CCCN[C@@H]3c3ccccc3)nc12
3: O=C1NCC2(CCCCC2)n2c1cc1cnc(N[C@H]3CC[C@H](Nc4ncc(F)cn4)CC3)nc12
Enquiry: Sort the list above on IC50 in ascending fashion. # list labels per requested ordering
Return: 3, 1, 2

P: N[C@H]1CC[C@@H](Nc2ncc3cc4n(c3n2)C2(CCCCC2)CN=C4)CC1
Q: O=C1NCC2(CCCCC2)n2c1cc1cnc(NC(=O)[C@H]3CNCC[C@H]3c3ccccc3)nc12
Enquiry: # returns the entry with the larger IC50; inputs P and Q API: response body contains the label of the selected item.
Return: Q

====

# measured.on: CDK2/Cyclin A (Homo sapiens)
# assay.details: CDK2/Cyclin A kinase assay (Nanosyn, Caliper microfluidic)
# details: 12-point dose-response, ATP at Km (50 μM), 3 hr
pIC50: −log10 of the molar value.
assay.endpoint: pIC50

structure.notation | measured.on | assay.endpoint | numeric.readout
C[C@H]1CC[C@@H](Nc2ncc3cc4n(c3n2)C2(CCCCC2)CN=C4)CC1 | CDK2/Cyclin A (Homo sapiens) | pIC50 | 6.17
O=C1NCC2(CCCCC2)n2c1cc1cnc(N[C@H]3CC[C@H](NCc4cccnc4)CC3)nc12 | CDK2/Cyclin A (Homo sapiens) | pIC50 | 6.85
O=C1NCC2(CCCCC2)n2c1cc1cnc(NC(=O)[C@H]3CNCCN3)nc12 | CDK2/Cyclin A (Homo sapiens) | pIC50 | 4.06
O=C1NCC2(CCCCC2)n2c1cc1cnc(N[C@@H]3C[C@@H](O)CNC3=O)nc12 | CDK2/Cyclin A (Homo sapiens) | pIC50 | 4.96
CN1CCN([C@H]2CC[C@@H](Nc3ncc4cc5n(c4n3)C3(CCCCC3)CNC5=S)CC2)CC1 | CDK2/Cyclin A (Homo sapiens) | pIC50 | 6.85

P: O=C1NCC2(CCCCC2)n2c1cc1cnc(NC(=O)[C@H]3CNCC[C@H]3c3ccccc3)nc12
Q: O=C1NCC2(CCCCC2)n2c1cc1cnc(N[C@H]3Cc4ccccc4NC3=O)nc12
Enquiry: Please indicate which entry, P or Q , has the lower recorded pIC50 value. API: response body contains the label of the selected item.
Return: P
(P: 4.17, Q: 5.10)

A: S=C1NCC2(CCCCC2)n2c1cc1cnc(N[C@@H]3CCCNC3)nc12
B: NS(=O)(=O)Cc1cccc(Nc2ncc3cc4n(c3n2)C2(CCCCC2)CNC4=O)c1
Enquiry: Determine, for A and B , which has the greater value of pIC50. In your reply, give the label of the chosen option.
Return: A

P: O=C1NCC2(CCCCC2)n2c1cc1cnc(N[C@H]3CC[C@H](NCc4ccccc4F)CC3)nc12
Q: CS(=O)(=O)N[C@H]1CC[C@H](Nc2ncc3cc4n(c3n2)C2(CCCCC2)CNC4=O)CC1
R: C[C@H]1CC[C@H](Nc2ncc3cc4n(c3n2)C2(CCCCC2)CN=C4)CC1
S: C1=NCC2(CCCCC2)n2c1cc1cnc(NC3CCOCC3)nc12
Enquiry: Parameters: sort_field (pIC50), sort_dir (desc). Put the labels in the requested order and write them down.
Return: S, Q, P, R

I: O=C1NCC2(CCCCC2)n2c1cc1cnc(N[C@H]3CC[C@H](N4CCOCC4)CC3)nc12
II: O=C1NCC2(CCCCC2)n2c1cc1cnc(N[C@@H]3CCCNC3)nc12
Enquiry: Returns: the argument ( I or II ) having the larger pIC50. Kindly give the label for the entry you pick.
Return: I
(I: 6.77, II: 6.41)

====

# measured.on: CDK9/Cyclin T (Homo sapiens, UniProt P50750)
# Sequence (P50750 whole entry): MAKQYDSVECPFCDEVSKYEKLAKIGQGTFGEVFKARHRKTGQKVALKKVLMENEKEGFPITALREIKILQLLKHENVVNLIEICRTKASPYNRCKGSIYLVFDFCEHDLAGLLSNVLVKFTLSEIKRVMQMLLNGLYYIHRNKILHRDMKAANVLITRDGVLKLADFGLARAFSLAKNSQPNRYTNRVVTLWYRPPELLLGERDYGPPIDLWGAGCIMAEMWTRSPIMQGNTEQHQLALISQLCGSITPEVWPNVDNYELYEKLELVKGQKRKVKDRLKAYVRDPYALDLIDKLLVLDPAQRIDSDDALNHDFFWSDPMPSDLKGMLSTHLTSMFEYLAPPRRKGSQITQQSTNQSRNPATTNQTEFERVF
# Sequence (O60563 whole entry partner): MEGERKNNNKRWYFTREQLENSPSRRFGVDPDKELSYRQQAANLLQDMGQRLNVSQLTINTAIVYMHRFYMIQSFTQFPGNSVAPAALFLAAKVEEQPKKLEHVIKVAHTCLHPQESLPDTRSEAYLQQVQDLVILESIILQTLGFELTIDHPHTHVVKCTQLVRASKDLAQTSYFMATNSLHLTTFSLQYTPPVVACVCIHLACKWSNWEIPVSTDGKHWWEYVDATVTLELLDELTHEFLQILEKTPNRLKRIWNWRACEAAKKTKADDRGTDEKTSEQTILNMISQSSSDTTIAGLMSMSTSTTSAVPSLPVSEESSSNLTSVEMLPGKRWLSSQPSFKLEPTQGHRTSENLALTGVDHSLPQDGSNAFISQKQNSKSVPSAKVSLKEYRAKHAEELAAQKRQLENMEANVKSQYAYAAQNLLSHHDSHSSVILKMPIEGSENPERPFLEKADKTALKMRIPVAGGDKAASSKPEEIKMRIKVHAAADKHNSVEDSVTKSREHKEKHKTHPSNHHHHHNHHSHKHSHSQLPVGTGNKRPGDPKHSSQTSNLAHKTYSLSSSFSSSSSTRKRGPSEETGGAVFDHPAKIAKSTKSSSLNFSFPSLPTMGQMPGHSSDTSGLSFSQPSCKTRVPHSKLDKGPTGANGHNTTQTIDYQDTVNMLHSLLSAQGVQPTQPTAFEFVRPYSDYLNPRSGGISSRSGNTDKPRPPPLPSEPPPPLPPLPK
# assay.details: CDK9/Cyclin T kinase assay (Nanosyn, Caliper microfluidic)
# Type: biochemical
# details: 12-point dose-response, ATP at Km (10 μM), 17 hr; Table 5
pIC50: −log10 of the molar value.
assay.endpoint: pIC50

Examples with their reported pIC50 follow.
compound | pIC50
CN1CCN([C@H]2CC[C@@H](Nc3ncc4cc5n(c4n3)C3(CCCCC3)CNC5=S)CC2)CC1 [Compound 39] | 7.89
O=C(C[C@H]1CCCN1)Nc1ncc2cc3n(c2n1)C1(CCCCC1)CNC3=O [Compound 37] | 6.92
CN(C)[C@H]1CC[C@H](Nc2ncc3cc4n(c3n2)C2(CCCCC2)CNC4=O)CC1 [Compound 45] | 8.48
O=C1NCC2(CCCCC2)n2c1cc1cnc(N[C@@H]3CCCNC3)nc12 [Compound 48] | 8.05
C1=NCC2(CCCCC2)n2c1cc1cnc(N[C@H]3CCCNC3)nc12 [Compound 50] | 7.64

I: C[C@H]1CC[C@@H](Nc2ncc3cc4n(c3n2)C2(CCCCC2)CN=C4)CC1 [Compound 53]
II: O=C1NCC2(CCCCC2)n2c1cc1cnc(N[C@H]3Cc4ccccc4NC3=O)nc12 [Compound 27]
Enquiry: Between these two entries, I and II , state which has the higher pIC50. Answer by quoting the chosen item's label.
Return: II
(II: 6.25, I: 6.05)

====

# measured.on: CDK9/Cyclin T (Homo sapiens, UniProt P50750)
# assay.details: CDK9/Cyclin T kinase assay (Nanosyn, Caliper microfluidic)
# Assay type: biochemical
# details: 12-point dose-response, ATP at Km (10 μM), 17 hr; Table 5
pIC50: −log10 of the molar value.
assay.endpoint: pIC50

structure.notation | measured.on | numeric.readout
O=C1NCC2(CCCCC2)n2c1cc1cnc(N[C@H]3CC[C@H](NC4CCOCC4)CC3)nc12 | CDK9/Cyclin T (Homo sapiens, UniProt P50750) | 8.57
CS(=O)(=O)N[C@H]1CC[C@H](Nc2ncc3cc4n(c3n2)C2(CCCCC2)CNC4=O)CC1 | CDK9/Cyclin T (Homo sapiens, UniProt P50750) | 7.25
O=C1NCC2(CCCCC2)n2c1cc1cnc(NC(=O)[C@H]3CNCCN3)nc12 | CDK9/Cyclin T (Homo sapiens, UniProt P50750) | 6.62
O=C1NCC2(CCCCC2)n2c1cc1cnc(N[C@H]3CC[C@H](Nc4ncc(F)cn4)CC3)nc12 | CDK9/Cyclin T (Homo sapiens, UniProt P50750) | 8.68
O=C1NCC2(CCCCC2)n2c1cc1cnc(N[C@H]3C[C@@H](O)CNC3=O)nc12 | CDK9/Cyclin T (Homo sapiens, UniProt P50750) | 5.47

A: C1=NCC2(CCCCC2)n2c1cc1cnc(N[C@@H]3CCCNC3)nc12
B: O=C1NCC2(CCCCC2)n2c1cc1cnc(NC(=O)[C@@H]3CCNC3)nc12
Enquiry: // which entry reports the smaller pIC50, A or B ? Answer with the label corresponding to your selection.
Return: A
(A: 6.70, B: 7.92)
